These measurements were taken from paper PMC10786891.

# maps each entry to its Kd
# SYSTEM: T1, EsCas13d, nuclease-dead (Eubacterium siraeum, UniProt B0MS50, R295A;H300A;R849A;H854A)
# T1 sequence: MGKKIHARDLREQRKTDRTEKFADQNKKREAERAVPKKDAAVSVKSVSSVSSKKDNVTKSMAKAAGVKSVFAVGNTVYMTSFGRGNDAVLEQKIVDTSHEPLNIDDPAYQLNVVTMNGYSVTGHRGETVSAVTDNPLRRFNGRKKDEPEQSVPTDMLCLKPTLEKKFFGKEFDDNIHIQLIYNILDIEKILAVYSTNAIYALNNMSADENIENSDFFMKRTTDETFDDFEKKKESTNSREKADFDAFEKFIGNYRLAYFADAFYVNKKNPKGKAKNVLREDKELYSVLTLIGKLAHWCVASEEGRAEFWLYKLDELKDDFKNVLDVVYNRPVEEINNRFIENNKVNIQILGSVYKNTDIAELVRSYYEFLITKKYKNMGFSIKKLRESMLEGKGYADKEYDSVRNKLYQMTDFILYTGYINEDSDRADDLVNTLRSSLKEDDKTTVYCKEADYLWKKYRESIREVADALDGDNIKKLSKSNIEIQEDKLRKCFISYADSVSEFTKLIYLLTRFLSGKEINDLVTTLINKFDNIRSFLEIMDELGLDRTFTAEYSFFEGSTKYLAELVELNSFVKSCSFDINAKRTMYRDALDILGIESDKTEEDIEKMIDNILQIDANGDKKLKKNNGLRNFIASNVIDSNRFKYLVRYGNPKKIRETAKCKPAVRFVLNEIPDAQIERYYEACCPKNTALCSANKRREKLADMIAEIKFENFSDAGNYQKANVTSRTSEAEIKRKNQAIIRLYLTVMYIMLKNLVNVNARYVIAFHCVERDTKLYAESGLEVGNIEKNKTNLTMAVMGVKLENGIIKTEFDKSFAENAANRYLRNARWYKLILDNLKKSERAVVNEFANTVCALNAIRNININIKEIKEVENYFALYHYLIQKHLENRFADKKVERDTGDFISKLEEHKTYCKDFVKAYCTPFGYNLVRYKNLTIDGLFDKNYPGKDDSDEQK
# ASSAY_SUMMARY: crRNA (strand 1, pre-loaded); Mg2+; 40 mM Tris-HCl pH 7.5, 150 mM NaCl, 6 mM MgCl2, 1 mM DTT, 0.1% Tween-20, 0.2 mg/ml BSA; 25 C; 10 min per concentration, then washed
# CONDITION_PARAMETERS: tags: His6-TwinStrep-SUMO cleaved; N-terminal SNAP kept (SNAP-Surface 488); label: 3' end held by stalled T7 RNA polymerase
Number only, in nM; omit the unit.

Sample records with Kd:
target 1 insU 3' of 18,insU 3' of 1 (mixed) RNA 1: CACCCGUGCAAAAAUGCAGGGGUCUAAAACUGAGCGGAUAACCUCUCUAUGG RNA 2: GGGAAUGGAUCCACAUCUACGAAUUCGUACCAUAUGAGAGGUUAUCCGCUCAUCCGAGAUCGGAAGAGCACACGU
33
target 1 C7G,U19G (mixed) RNA 1: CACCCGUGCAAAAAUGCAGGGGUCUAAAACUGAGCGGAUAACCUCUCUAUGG RNA 2: GGGAAUGGAUCCACAUCUACGAAUUCGUACCAGAGAGAGGUUAUGCGCUCACCGAGAUCGGAAGAGCACACGU
34
target 1 insA 3' of 8,insG 3' of 4 (mixed) RNA 1: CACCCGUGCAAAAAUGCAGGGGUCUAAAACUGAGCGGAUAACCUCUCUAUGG RNA 2: GGGAAUGGAUCCACAUCUACGAAUUCGUACCAUAGAGAGGUUAUACCGCGUCACCGAGAUCGGAAGAGCACACGU
7.7

Turning now to a further record.
# input Quick one: Kd of target 2 MT 5'PFS UAG 3'PFS AAU (mixed) RNA 1: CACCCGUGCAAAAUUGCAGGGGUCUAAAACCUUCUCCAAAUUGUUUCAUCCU RNA 2: GGGAAUGGAUCCACAUCUACGAAUUCUAGAGGAUGAAACAAUUUGGAGAAGAAUAGAUCGGAAGAGCACACGU ?
# output 3.8
